Assay: Formation of a low-solubility polymer/drug complex (gel) on mixing polyanion sodium salt with the salt of the active ingredient
measuredEndpoint: complex of low solubility forms (yes/no), polymer CMC-L

molecule: NCC[C@H](O)C(=O)N[C@@H]1C[C@H](N)[C@@H](O[C@H]2O[C@H](CN)[C@@H](O)[C@H](O)[C@H]2O)[C@H](O)[C@H]1O[C@H]1O[C@H](CO)[C@@H](O)[C@H](N)[C@H]1O
result: no
--
molecule: CN[C@H](CC(C)C)C(=O)N[C@H]1C(=O)N[C@@H](CC(N)=O)C(=O)N[C@H]2C(=O)N[C@H]3C(=O)N[C@H](C(=O)N[C@H](C(=O)O)c4cc(O)cc(O)c4-c4cc3ccc4O)[C@H](O)c3ccc(c(Cl)c3)Oc3cc2cc(c3O[C@@H]2O[C@H](CO)[C@@H](O)[C@H](O)[C@H]2O[C@H]2C[C@](C)(N)[C@H](O)[C@H](C)O2)Oc2ccc(cc2Cl)[C@H]1O
result: yes
--
molecule: CN(C)CCCN1c2ccccc2Sc2ccc(Cl)cc21
result: yes
--
molecule: CC[C@H]1OC(=O)[C@H](C)[C@@H](O[C@H]2C[C@@](C)(OC)[C@@H](O)[C@H](C)O2)[C@H](C)[C@@H](O[C@@H]2O[C@H](C)C[C@H](N(C)C)[C@H]2O)[C@](C)(O)C[C@@H](C)C(=O)[C@H](C)[C@@H](O)[C@]1(C)O
result: no
--
molecule: CN(C)[C@@H]1C(O)=C(C(N)=O)C(=O)[C@@]2(O)C(O)=C3C(=O)c4c(O)cccc4[C@@](C)(O)[C@H]3[C@H](O)[C@@H]12
result: yes

These measurements were taken from patent US20070110804A1.
